target: ScNbp2; assay: SPOT peptide array binding signal intensity (averaged, normalized) (arbitrary units (background-subtracted, floor 0; scale differs between SH3 domains)); higher = stronger binding of the SH3 domain to the peptide
Bucketed by reported SPOT peptide array binding signal intensity, buckets being Low = under 70, Mid = from 70 up to 200, High = 200 and over

>>> label_value("NFLRLLIGLPSQNEL")
"Low"
>>> label_value("KRKRFNLLLPKPYLT")
"Mid"
>>> label_value("ITHRLRISIPGITGR")
"High"
>>> label_value("GDHPKGPPPPPPPDE")
"Low"
>>> label_value("GKFIPSRPAPKPPSS")
"High"
>>> label_value("TSFKGRPKPPKTLKH")
"Low"
>>> label_value("RRLRDKYKLPIVDAD")
"Mid"
>>> label_value("LLIRWLILMPLVGSR")
"High"
>>> label_value("VNIPSPSSSPPPIPK")
"Low"
>>> label_value("LLLLFVPDSPYDPAI")
"Mid"
>>> label_value("LPMNIQPDLPPRKIM")
"High"
>>> label_value("KRRTSLFPWLHKPGI")
"High"
>>> label_value("APKHAPPPVPNETDN")
"Low"
>>> label_value("LRWRHKFFLPAIAAI")
"Low"

Data origin, for the record: the supplement of paper PMC4466140
